B1: Histone H1t, residues 44 to 112; numbered along this chain, P22492 (parent)
chain: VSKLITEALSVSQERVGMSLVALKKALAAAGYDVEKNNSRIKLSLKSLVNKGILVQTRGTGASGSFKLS

variants of: B1; assay: abundance fitness (aPCA) (normalised: wild type 0, dead -1); higher = more abundant; growth selection in yeast, the domain comes from the species named; conditions: Homo sapiens
Lab note: anything with abundance fitness at or over -0.2 counts as class 1; the rest go in class 0.

VARIANT_DESCRIPTOR: G61A
CLASS_LABEL: class 1
//
VARIANT_DESCRIPTOR: G61W
CLASS_LABEL: class 1
//
VARIANT_DESCRIPTOR: S63L
CLASS_LABEL: class 1
//
VARIANT_DESCRIPTOR: A22T
CLASS_LABEL: class 0
//
VARIANT_DESCRIPTOR: K42D
CLASS_LABEL: class 1
//
VARIANT_DESCRIPTOR: K25Y
CLASS_LABEL: class 0
//
VARIANT_DESCRIPTOR: Q56K
CLASS_LABEL: class 1
//
VARIANT_DESCRIPTOR: A30W
CLASS_LABEL: class 1
//
VARIANT_DESCRIPTOR: K24W
CLASS_LABEL: class 0
//
VARIANT_DESCRIPTOR: I53A
CLASS_LABEL: class 1
//
VARIANT_DESCRIPTOR: S39W
CLASS_LABEL: class 0
